- Study System: ~100 representative kinases (Homo sapiens)
- Construct: Recombinant protein kinase domains with a concentration of 2 μM
- Assay Overview: DSF 100 kinase selectivity screen;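 for dTm: compound tested at 20 µM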
- Type: binding
- Details: Protein TIF1; DSF; average of three replicates
The following compounds are shown together with reported dTm values.
Answer with a number only, understood to be in K.

Check out these entries, answers already filled in.
Compound: O=C(Nc1cccc(-c2c[nH]c3ncnc(N4CCOCC4)c23)c1)C1(C(=O)Nc2cc(Br)c(F)cc2F)CC1 [Compound 25]
Measured: 3.01
//
Compound: Cc1cc(NC(=O)C2(C(=O)Nc3ccc(F)cc3)CC2)cc(-c2c[nH]c3ncnc(N4CCOCC4)c23)c1 [Compound 6]
Measured: 2.83
//
Compound: O=C(Nc1cc(F)cc(Br)c1)C1(C(=O)Nc2cccc(-c3c[nH]c4ncnc(N5CCOCC5)c34)c2)CC1 [Compound 27]
Measured: 4.20
//
Compound: CCSc1nc(NC)c2c(-c3cccc(NC(=O)Nc4cc(C(C)(C)C)nn4-c4ccc(C)cc4)c3)c[nH]c2n1 [Compound 32]
Measured: 0.82
//
Compound: Cc1ccc(-n2nc(C(C)(C)C)cc2NC(=O)Nc2cccc(-c3c[nH]c4nc(Cl)nc(N5CCOCC5)c34)c2)cc1 [Compound 30]
Measured: 1.73
//
Compound: Cc1ccc(C(=O)Nc2ccc(CN3CCN(C)CC3)c(C(F)(F)F)c2)cc1C#Cc1cnc2[nH]ncc2c1 [GZD-824, reference compound]
Measured: 0.34
//
Compound: Cc1ccc(-n2nc(C(C)(C)C)cc2NC(=O)Nc2cccc(-c3c[nH]c4ncnc(N5CCOCC5)c34)c2)cc1 [Compound 29]
Measured: 0.97
//
Compound: O=C(Nc1cccc(-c2c[nH]c3ncnc(N4CCOCC4)c23)c1)C1(C(=O)Nc2cccc3c2CCC3)CC1 [Compound 11]
Measured: 3.41
//
Compound: CC(=O)N1CCN(c2nc(Cl)nc3[nH]cc(-c4cccc(NC(=O)Nc5cc(C(C)(C)C)nn5-c5ccc(C)cc5)c4)c23)CC1 [Compound 31]
Measured: 0.90
//
Compound: C[C@@H]1CN(c2cc(-c3n[nH]c4ccc(OC5(C)CC5)cc34)ncn2)C[C@H](C)O1 [MLi2]
Measured: 0.28

[Q] Which dTm value belongs to COc1cc(C(=O)N2CCOCC2)c(F)cc1Nc1nc(N(C)C)c2c(Cl)c[nH]c2n1 [Compound 36] ?
[A] -2.24

[Q] What does the data say about its dTm? Entry: CC(C)(C)c1cccc(NC(=O)C2(C(=O)Nc3cccc(-c4c[nH]c5ncnc(N6CCOCC6)c45)c3)CC2)c1 [Compound 22]
[A] 5.42

[Q] Request the reported dTm associated with COc1cc(S(C)(=O)=O)ccc1Nc1nc(N(C)C)c2c(Cl)c[nH]c2n1 [Compound 37]
[A] -0.80

[Q] Value lookup for dTm; key = Cc1ccc(C(=O)Nc2ccc(CN3CCN(C)CC3)c(C(F)(F)F)c2)cc1C#Cc1c[nH]c2ncnc(N3CCOCC3)c12 [Compound 1]
[A] 0.45

====

- Tested on: ~100 representative kinases
- Assay Overview: DSF 100 kinase selectivity screen;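 for dTm: compound tested at 20 µM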
- Format: binding
- Details: number of proteins of the DSF panel with dTm >5K
List of # >5K values.
# output: bare number, no unit

Mol Smiles: Cc1cc(NC(=O)C2(C(=O)Nc3cccc(-c4c[nH]c5ncnc(N6CCOCC6)c45)c3)CC2)ccc1F
Measured: 42

[Q] What value of # >5K has been recorded for this entry: O=C(Nc1cccc(-c2c[nH]c3ncnc(N4CCOCC4)c23)c1)C1(C(=O)Nc2ccc(F)c(Br)c2F)CC1
[A] 15

[Q] Dear colleague, I am looking for the recorded # >5K of the following compound: CC(=O)N1CCN(c2nc(Cl)nc3[nH]cc(-c4cccc(NC(=O)Nc5cc(C(C)(C)C)nn5-c5ccc(C)cc5)c4)c23)CC1
[A] 15

[Q] If you can, please state the reported # >5K value of CCSc1nc(NC)c2c(-c3cccc(NC(=O)Nc4cc(C(C)(C)C)nn4-c4ccc(C)cc4)c3)c[nH]c2n1 .
[A] 10

[Q] Quick one: # >5K for Cc1cc(NC(=O)C2(C(=O)Nc3ccc(F)cc3)CC2)cc(-c2c[nH]c3ncnc(N4CCOCC4)c23)c1 ?
[A] 13

[Q] Quick one: # >5K for O=C(Nc1ccccc1)C1(C(=O)Nc2cccc(-c3c[nH]c4ncnc(N5CCOCC5)c34)c2)CC1 ?
[A] 26

[Q] Which measured # >5K value corresponds to O=C(Nc1cccc(-c2c[nH]c3ncnc(N4CCOCC4)c23)c1)c1cccn(-c2ccc(F)cc2)c1=O ?
[A] 33

====

The following compounds are shown together with reported dTm values.
- Study System: ~100 representative kinases (Homo sapiens, UniProt P12931)
- Construct: Recombinant protein kinase domains with a concentration of 2 μM
- Sequence (P12931 whole entry, the tested form may be a part): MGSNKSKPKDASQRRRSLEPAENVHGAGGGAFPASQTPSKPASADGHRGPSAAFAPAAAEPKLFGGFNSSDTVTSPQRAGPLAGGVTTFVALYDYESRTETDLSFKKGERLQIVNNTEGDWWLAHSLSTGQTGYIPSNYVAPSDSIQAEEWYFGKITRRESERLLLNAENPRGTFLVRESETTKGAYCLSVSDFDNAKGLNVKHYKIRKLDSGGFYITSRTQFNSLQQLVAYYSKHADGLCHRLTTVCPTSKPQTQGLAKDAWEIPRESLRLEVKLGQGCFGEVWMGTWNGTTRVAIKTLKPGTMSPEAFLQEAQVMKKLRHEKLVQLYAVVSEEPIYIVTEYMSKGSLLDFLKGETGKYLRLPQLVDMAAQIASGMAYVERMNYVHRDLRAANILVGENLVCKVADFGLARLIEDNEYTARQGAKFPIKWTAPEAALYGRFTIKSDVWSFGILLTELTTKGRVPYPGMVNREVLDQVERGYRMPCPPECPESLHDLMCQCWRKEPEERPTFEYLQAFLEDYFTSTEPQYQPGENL
- Assay Overview: DSF 100 kinase selectivity screen;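 for dTm: compound tested at 20 µM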
- Assay type: binding
- Details: Protein SRC; DSF; average of three replicates
Just the number in K, nothing appended.

Worked cases, answers included:
Compound: O=C(Nc1ccccc1)C1(C(=O)Nc2cccc(-c3c[nH]c4ncnc(N5CCOCC5)c34)c2)CC1 [Compound 12]
Measured: 1.12
//
Compound: O=C(Nc1cccc(-c2c[nH]c3ncnc(N4CCOCC4)c23)c1)C1(C(=O)Nc2cccc3c2CCC3)CC1 [Compound 11]
Measured: 2.66
//
Compound: CC(C)(C)c1cc(NC(=O)Nc2cccc(-c3c[nH]c4ncnc(N5CCOCC5)c34)c2)n(-c2ccc3ncccc3c2)n1 [Compound 28]
Measured: 7.10
//
Compound: COc1cc(C(=O)N2CCOCC2)c(F)cc1Nc1nc(N(C)C)c2c(Cl)c[nH]c2n1 [Compound 36]
Measured: 0.60
//
Compound: COc1cc(NC(=O)C2(C(=O)Nc3cccc(-c4c[nH]c5ncnc(N6CCOCC6)c45)c3)CC2)ccc1F [Compound 21]
Measured: 0.91

[Q] Which dTm value belongs to Cc1cc(NC(=O)C2(C(=O)Nc3cccc(-c4c[nH]c5ncnc(N6CCOCC6)c45)c3)CC2)ccc1F [Compound 20] ?
[A] 1.91

[Q] Give its dTm value. Item: CCc1ccc(NC(=O)C2(C(=O)Nc3cccc(-c4c[nH]c5ncnc(N6CCOCC6)c45)c3)CC2)cc1 [Compound 15]
[A] 1.22

====

- Study System: ~100 representative kinases (Homo sapiens)
- Construct: Recombinant protein kinase domains with a concentration of 2 μM
- Assay Overview: DSF 100 kinase selectivity screen;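 for dTm: compound tested at 20 µM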
- Type: binding
- Details: Protein CSNK1E; average of three replicates
Result Type: dTm (K)
Write the number in K without appending the unit.

Solved entries (count: 8):
Compound: CNC(=O)c1cc(Oc2ccc(NC(=O)Nc3cc(C(C)(C)C)nn3-c3ccc4ncccc4c3)c(F)c2)ccn1 [Rebastinib, reference compound]
Study System: ~100 representative kinases (Homo sapiens)
Units Text: K
dTm: 0.33
//
Compound: Cc1cc(NC(=O)C2(C(=O)Nc3ccc(F)cc3)CC2)cc(-c2c[nH]c3ncnc(N4CCOCC4)c23)c1
Study System: ~100 representative kinases (Homo sapiens)
Units Text: K
dTm: 4.54
//
Compound: Cc1cc(F)ccc1NC(=O)C1(C(=O)Nc2cccc(-c3c[nH]c4ncnc(N5CCOCC5)c34)c2)CC1
Study System: ~100 representative kinases (Homo sapiens)
Units Text: K
dTm: 3.91
//
Compound: O=C(Nc1cccc(-c2c[nH]c3ncnc(N4CCOCC4)c23)c1)C1(C(=O)Nc2cccc3c2CCC3)CC1
Study System: ~100 representative kinases (Homo sapiens)
Units Text: K
dTm: 4.91
//
Compound: COc1cc(S(C)(=O)=O)ccc1Nc1nc(N(C)C)c2c(Cl)c[nH]c2n1
Study System: ~100 representative kinases (Homo sapiens)
Units Text: K
dTm: 1.77
//
Compound: O=C(Nc1cccc(-c2c[nH]c3ncnc(N4CCOCC4)c23)c1)C1(C(=O)Nc2ccc(F)c(F)c2)CC1
Study System: ~100 representative kinases (Homo sapiens)
Units Text: K
dTm: 5.09
//
Compound: O=C(Nc1cccc(-c2c[nH]c3ncnc(N4CCOCC4)c23)c1)C1(C(=O)Nc2ccc(F)c(Br)c2)CC1
Study System: ~100 representative kinases (Homo sapiens)
Units Text: K
dTm: 6.33
//
Compound: CCSc1nc(NC)c2c(-c3cccc(NC(=O)Nc4cc(C(C)(C)C)nn4-c4ccc(C)cc4)c3)c[nH]c2n1
Study System: ~100 representative kinases (Homo sapiens)
Units Text: K
dTm: -0.41

[Q] Which measured dTm value corresponds to Cc1ccc(-n2nc(C(C)(C)C)cc2NC(=O)Nc2cccc(-c3c[nH]c4ncnc(N5CCOCC5)c34)c2)cc1 ?
[A] 0.48

[Q] Which dTm reading was recorded for the compound COc1cc2c(Oc3ccc(NC(=O)C4(C(=O)Nc5ccc(F)cc5)CC4)cc3F)ccnc2cc1OCCCN1CCOCC1 [Foretinib, reference compound] ?
[A] 3.48

[Q] Any idea what its dTm is? The compound is O=C(Nc1cc(F)cc(Br)c1)C1(C(=O)Nc2cccc(-c3c[nH]c4ncnc(N5CCOCC5)c34)c2)CC1
[A] 4.18

[Q] Item under review: Cc1ccc(NC(=O)C2(C(=O)Nc3cccc(-c4c[nH]c5ncnc(N6CCOCC6)c45)c3)CC2)cc1 . Reported dTm?
[A] 3.41

[Q] Would you mind telling me what dTm value was observed for O=C(Nc1ccc(Cl)cc1)C1(C(=O)Nc2cccc(-c3c[nH]c4ncnc(N5CCOCC5)c34)c2)CC1 ?
[A] 5.46

[Q] Entry Cc1ccc(-n2nc(C(C)(C)C)cc2NC(=O)Nc2cccc(-c3c[nH]c4nc(Cl)nc(N5CCOCC5)c34)c2)cc1 : reported dTm = ?
[A] -2.01

[Q] Could you tell me which dTm is on file for O=C(Nc1ccc(F)cc1)C1(C(=O)Nc2cccc(-c3c[nH]c4ncnc(N5CCOCC5)c34)c2)CC1 ?
[A] 4.37
